Reference for the values: PubChem BioAssay AID651814

- Subject Of Test: DNA dC->dU-editing enzyme APOBEC-3F (Homo sapiens)
- Test Summary: qHTS for inhibitors of Vif-A3F interactions: Cherry picks; also: nearly all actives have a fitted effect of over 70% in size;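 as to max response: % of control where 0% means no effect; active compounds raise eYFP fluorescence by blocking Vif-driven A3F loss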
- Applied Conditions: HeLa A3F-eYFP + Vif, eYFP fluorescence, 24 h
Hit rate of the full screen: of about 2,100 compounds, about 590 (28%) were called active. About 42% were inconclusive and are not listed. This is one part of the list.
Would you please tag the item t when its max response is -20% or above, and f when it is below?

> print(dat)
                                    compound  qualitative.label
 1  CCCC(=O)NC(c1ccc(OC)cc1)c1c(O)ccc2ccccc12 (configuration not stated)                  f
 2  COc1cc(C(=O)NCCOc2cc(C)cc(C)c2)c(Br)c(OC)c1OC                  f
 3  CC(=O)n1cc(/C=N/NC(=O)c2sc(C)nc2C)c2ccccc21                  f
 4  CCOC(=O)c1c(-c2ccc(OC)cc2)csc1/N=C/C1=C(O)CCCC1=O                  t
 5             CSc1nc(Sc2ccccc2Cl)c2ccccc2n1                  f
 6  CCOC(=O)c1c(CC(C)C)csc1/N=C/C1C(=O)CCCC1=O                  t
 7  O=C(Cn1cnc2c(cnn2-c2ccc(F)cc2)c1=O)NCc1ccco1                  f
 8       Cn1c2ccccc2c2ccc3c(c21)C(=O)C=CC3=O                  t
 9                    COCCNC(=S)NN=C1CCCCCC1                  t
10    C/C(=N\NC(=S)NC(C)C)c1ccc(C(C)(C)C)cc1                  t
11          O=C(c1ccccc1)C1C(=O)c2ccccc2C1=O                  t

----------
- Subject Of Test: DNA dC->dU-editing enzyme APOBEC-3F (Homo sapiens)
- Test Summary: qHTS for inhibitors of Vif-A3F interactions: Cherry picks; also: nearly all actives have a fitted effect of over 70% in size;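 as to max response: % of control where 0% means no effect; active compounds raise eYFP fluorescence by blocking Vif-driven A3F loss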
- Applied Conditions: HeLa A3F-eYFP + Vif, eYFP fluorescence, 24 h
Hit rate of the full screen: of about 2,100 compounds, about 590 (28%) were called active. Another 42% or so got no clear call; they are omitted. Some of the results follow.
Measure Name: max response (%)

> print(dat)
                                entry.smiles  units.text  reported
 1        CCCCN1C(=O)c2cccc3cc(O)cc(c23)C1=O           %     -4.14
 2  Cc1sc2nc(SCC(=O)N3CCOCC3)[nH]c(=O)c2c1-c1ccccc1           %     -2.85
 3   N#C/C(=C/c1ccc(N2CCCCCC2)o1)c1cccc(F)c1           %     -26.2
 4  O=C1c2cccc3c(N4CCCCC4)ccc(c23)C(=O)N1c1ccc(O)cc1           %     -17.3
 5           Cc1cc(C)cc(NC(=S)NC(=O)C2CC2)c1           %     -4.35
 6  Cc1ccc(-n2nc3c(SCCN4CCOCC4)nnc(C)c3c2C)cc1           %     -16.8
 7      CCOc1cc(C(=O)NN=C2CCCC2)cc(OCC)c1OCC           %      -3.9
 8  Oc1ccc(C2=NNC(=NCc3ccc4c(c3)OCO4)SC2)c(O)c1           %       -25
 9  O=C(OC12CC3CC(CC(C3)C1)C2)c1ccc(NCc2cc(O)ccc2O)cc1           %     -13.8
10  N#C/C(=C\c1ccccc1[N+](=O)[O-])C(=O)NCc1ccccc1           %     -6.74
11  COc1ccccc1N1C(=O)c2cccc3c(C(=O)O)ccc(c23)C1=O           %       1.5

----------
- Subject Of Test: DNA dC->dU-editing enzyme APOBEC-3F (Homo sapiens) (UniProt Q8IUX4)
- Sequence (Q8IUX4 whole entry, looked up): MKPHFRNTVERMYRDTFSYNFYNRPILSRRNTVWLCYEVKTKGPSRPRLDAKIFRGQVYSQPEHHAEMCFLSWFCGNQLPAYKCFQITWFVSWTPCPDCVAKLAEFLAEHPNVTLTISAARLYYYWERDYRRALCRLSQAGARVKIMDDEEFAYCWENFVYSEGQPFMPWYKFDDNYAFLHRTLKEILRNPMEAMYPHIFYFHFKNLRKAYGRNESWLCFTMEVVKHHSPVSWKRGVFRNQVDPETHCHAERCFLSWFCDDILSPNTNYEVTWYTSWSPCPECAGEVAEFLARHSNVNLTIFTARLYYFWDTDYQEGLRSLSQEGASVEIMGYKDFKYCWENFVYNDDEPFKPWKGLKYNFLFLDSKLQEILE
- Test Summary: qHTS for inhibitors of Vif-A3F interactions: Cherry picks; also: nearly all actives have a fitted effect of over 70% in size;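 as to max response: % of control where 0% means no effect; active compounds raise eYFP fluorescence by blocking Vif-driven A3F loss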
- Applied Conditions: HeLa A3F-eYFP + Vif, eYFP fluorescence, 24 h
Among all 2,100 compounds or so, about 590 (28%) were called active. Another 42% or so got no clear call; they are omitted. The list shows a part of the results.
# max response annotations
Measure Name: max response (%)

> print(dat)
                                    compound  reported
 1  O=C(N/N=C/c1ccc([N+](=O)[O-])o1)c1cn2ccc3ccccc3c2n1     -11.2
 2  CCC(=O)Nc1nc2ccc(NC(=O)c3cc(OC)c(OC)c(OC)c3)cc2s1     -4.22
 3  Cc1ccccc1NC(=O)CSC1=C(C#N)C(c2ccsc2)CC(=O)N1 (stereo not given)     -7.98
 4   COc1cc(/C=C(\C#N)c2nc3ccccc3[nH]2)ccc1O         6
 5  CC1Cc2cc(S(=O)(=O)CCC(=O)NCc3ccc(Cl)cc3)ccc2N1C(=O)C1CC1 (stereo not given)     -29.5
 6  N#CCSc1ccccc1NC(=O)CN1C(=O)NC(CCc2ccccc2)C1=O (stereo not given)     -19.2
 7  COC(=O)c1c(-c2cccnc2)csc1NC(=O)c1ccc2c(c1)OCO2     -11.9
 8  COc1ccc(OC)c2sc(NC(=O)CCS(=O)(=O)c3ccccc3)nc12     -17.2
 9        O=C(/C=C/c1cccs1)NCc1ccc2c(c1)OCO2      1.53
10  COc1cc(OC)c(C2Nc3cccc4cccc(c34)N2)c(OC)c1    -0.492

----------
# Potency annotations
- Subject Of Test: DNA dC->dU-editing enzyme APOBEC-3F (Homo sapiens) (UniProt Q8IUX4)
- Test Summary: qHTS for inhibitors of Vif-A3F interactions: Cherry picks; also: nearly all actives have a fitted effect of over 70% in size; also: potency is read from the fitted curve at half-maximal effect
- Applied Conditions: HeLa A3F-eYFP + Vif (tagged APOBEC3F with the HIV-1 protein that degrades it), eYFP fluorescence, 24 h
About 590 (28%) of roughly 2,100 compounds were called active. Not shown: some 42% with an inconclusive outcome. The list shows a part of the results.
Measure Name: Potency

> print(dat)
                                    compound          reported
 1  N#C/C(=C\c1ccc(-c2ccc(F)cc2F)o1)c1nc2ccccc2[nH]1  20.6 µM (active)
 2  COc1ccc(-c2csc(NC(=S)NC(=O)/C=C/c3ccco3)n2)cc1Br  7.04 µM (active)
 3  CC1=CN2C(=N)/C(=C/c3ccc([N+](=O)[O-])o3)C(=O)N=C2S1    14 µM (active)
 4  CCOC(=O)c1ccc(NC(=O)CSc2nc(-c3cccs3)cc(C(F)(F)F)c2C#N)cc1  16.4 µM (active)
 5  N#Cc1c(C(F)(F)F)cc(-c2cccs2)nc1SCC(=O)Nc1cccc(C(F)(F)F)c1  18.4 µM (active)
 6  CC(C)(C)C(=O)c1sc2nc(-c3cccs3)cc(C(F)(F)F)c2c1N  1.03 µM (active)
 7  Cc1coc(NC(=O)CSc2nc(-c3ccncc3)cc(C(F)(F)F)c2C#N)n1    13 µM (active)
 8  CCCCN1C(=O)C2Cc3c([nH]c4ccccc34)CN2C1=S (configuration not stated)  15.8 µM (active)
 9  Cc1ccc2nc(/C(C#N)=C/c3ccc(-c4ccc(C(=O)OC(C)C)cc4)o3)[nH]c2c1  2.06 µM (active)
10   C1=Cc2ccccc2/C1=C\c1cc2c3c(c1)CCCN3CCC2  18.4 µM (active)
11  COC(=O)c1sc2cc([N+](=O)[O-])cc(SCC(C)C)c2c1N    13 µM (active)
12  COc1cc(/C=C(\C#N)c2nc3ccc(C)cc3[nH]2)ccc1OC(C)C  20.6 µM (active)
13               Oc1sc(C=Nc2ccccc2)c2ccccc12  20.6 µM (active)
14  Cc1ccc2nc(/C(C#N)=C/c3ccc(-c4ccc(F)cc4F)o3)[nH]c2c1  4.11 µM (active)
15   COc1ccc2c(c1)c(/C=C/c1cc[n+](C)cc1)cn2C  2.23 µM (active)
16  CC(=O)c1sc2nc(-c3cccs3)cc(C(F)(F)F)c2c1N  7.31 µM (active)
17   COc1ccc2[nH]cc(/C=C/c3cc[n+](C)cc3)c2c1    13 µM (active)
18    Cc1ccc2[nH]cc(/C=C/c3cc[n+](C)cc3)c2c1   1.4 µM (active)
19  Cc1ccc(NC(=O)c2ccc(NCC3CCCO3)c([N+](=O)[O-])c2)cc1Cl (configuration not stated)  20.6 µM (active)
20  O=C(Nc1cc(F)cc(F)c1)c1ccc(NCCc2ccccc2)c([N+](=O)[O-])c1  20.6 µM (active)
21     COc1ccc(N=Cc2c(O)c3ccccc3n2C(C)=O)cc1  20.6 µM (active)
22  Cc1ccc(C2C(C(=O)c3cccs3)=C(O)C(=O)N2c2nnc(C)s2)cc1 (configuration not stated)  19.8 µM (active)
